- Tested on: CP191
- assay_text: qHTS profiling for inhibitors of Plasmodium falciparum proliferation (AID 504749); also: nearly all actives have a fitted effect of over 60% in size
- run_parameters: P. falciparum in erythrocytes, SYBR Green DNA, 72 h; series mostly up to 12.8 µM
Results filed as inconclusive are left out. The source made the active and inactive calls. Calls follow the shape of the dose curve; as a rule, active = well fitted inhibition curve with a large enough effect; inconclusive = small, poorly fitted or top-dose-only effect; inactive = flat fitted curve, though single readings scatter.
One label from this list, please: t = active, f = inactive

smiles_record: CC1(C)S[C@@H]2[C@H](NC(=O)[C@H](C(=O)O)c3ccsc3)C(=O)N2[C@H]1C(=O)O
subject_of_test: CP191
group_label: f
//
smiles_record: CCN1C(=O)N[C@@H](c2ccccc2)C1=O
subject_of_test: CP191
group_label: f
//
smiles_record: CCN(CC)CCC[C@H](C)Nc1ccnc2cc(Cl)ccc12
subject_of_test: CP191
group_label: t
//
smiles_record: CO[C@H]1C[C@@H](O[C@@H]2[C@H](C)[C@H](O[C@@H]3O[C@@H](C)C[C@@H](N(C)C)[C@@H]3O)[C@H](C)C[C@]3(CO3)C(=O)[C@H](C)[C@H](O)[C@H](C)[C@H](C)OC(=O)[C@@H]2C)O[C@@H](C)[C@H]1O
subject_of_test: CP191
group_label: f
//
smiles_record: CCN(CC)CCC[C@H](C)Nc1c2ccc(Cl)cc2nc2ccc(OC)cc12
subject_of_test: CP191
group_label: t

Dear colleague, could you share the recorded outcome for C[C@@H]1c2cccc(O)c2C(O)=C2C(=O)[C@@]3(O)C(O)=C(C(N)=O)C(=O)[C@@H](N(C)C)[C@@H]3[C@@H](O)[C@@H]21 when you have a moment?
f

Dear colleague, could you share the recorded outcome for CC(C)(C)NC[C@H](O)c1cc(O)cc(O)c1 when you have a moment?
f

Dear colleague, could you share the recorded outcome for NC(=O)c1cc[n+](CC2=C(C(=O)O)N3C(=O)[C@@H](NC(=O)[C@H](c4ccccc4)S(=O)(=O)[O-])[C@@H]3SC2)cc1 when you have a moment?
t

Dear colleague, could you share the recorded outcome for Cc1cc(/C=C\c2ccc3cc(N(C)C)ccc3[n+]2C)c(C)n1-c1ccccc1 when you have a moment?
t

Dear colleague, could you share the recorded outcome for O=C(c1ccccc1)c1ccc2n1CC[C@H]2C(=O)O when you have a moment?
f

Dear colleague, could you share the recorded outcome for CCn1cc(C(=O)O)c(=O)c2cc(F)c(N3CCN[C@@H](C)C3)c(F)c21 when you have a moment?
f

* * *

- assay_text: Cell-based coincidence reporter assay to measure PMP22 gene transcription in S16 Pmp22-F2sN cells - Confirmatory screen (AID 1508646)
- run_parameters: S16 Schwann cells Pmp22-F2sN, dual luciferase, 24 h; series mostly up to 57.5 µM
Some of the results follow. Inconclusive results are not listed. The source made the active and inactive calls. How the source made its calls: active means clear falling dose curves in both reporters; inconclusive means both reporters move, but less clearly or upward; inactive means either reporter flat; the % is the FLuc reporter signal.
One label from this list, please: Y for active, N for inactive

Below are worked cases with known answers.
molecule: COc1ccccc1-c1cc(C(F)(F)F)nc(S(=O)(=O)CCCC(=O)Nc2ccc(F)cc2F)n1
group_label: Y
//
molecule: Cc1ccc(NC(=O)c2nc(S(=O)(=O)Cc3cccc(C)c3)ncc2Cl)cc1
group_label: Y
//
molecule: O=C(CCS(=O)(=O)c1ccccc1)N(Cc1cccnc1)c1nc2c(F)cccc2s1
group_label: Y

Dear colleague, could you share the recorded outcome for CCOC(=O)C1CCN(C(=O)CSc2c3c(nc4ccc(Cl)cc24)CCCC3)CC1 when you have a moment?
Y

Dear colleague, could you share the recorded outcome for Cc1cc(OCC(=O)NCC2(N(C)C)CCCCC2)cc(C)c1Cl when you have a moment?
N

* * *

Reported activity change, negative = inhibition by item:
- assay_text: AP1 Signaling Pathway (AID 357);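 also: ME-180 reporter cells stimulated with EGF at its EC50 level; % is scaled to controls: 0 for no effect and ±100 for the full control effect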
- run_parameters: ME-180 AP-1-bla reporter, EGF-induced, beta-lactamase ratio, 5 h; at 38 µM (top of the series)
Inconclusive results are not listed. Activity calls are given as the source filed them. Calls come from the whole dose curve; as a rule, active = well fitted curve in either direction with a large enough effect (not every such curve was filed as active); inconclusive = small, poorly fitted or top-dose-only effect, or another doubt; inactive = flat fitted curve, though single readings scatter.

# annotated cases, reported activity change, negative = inhibition shown
smiles_record: O=C(C1CCCCC1)N1CC(=O)N2CCc3ccccc3[C@@H]2C1
activity change, negative = inhibition: -5.21% (inactive)
--
smiles_record: CC(C)(Oc1ccc([C@@H]2CC2(Cl)Cl)cc1)C(=O)O
activity change, negative = inhibition: -10.2% (inactive)
--
smiles_record: C[C@@H](C(=O)O)c1cccc(C(=O)c2ccccc2)c1
activity change, negative = inhibition: 9.29% (inactive)
--
smiles_record: C[C@H](NCCc1ccc(O)cc1)[C@@H](O)c1ccc(O)cc1
activity change, negative = inhibition: 12.1% (inactive)
--
smiles_record: NC(=O)c1cc[n+](CC2=C(C(=O)O)N3C(=O)[C@@H](NC(=O)[C@H](c4ccccc4)S(=O)(=O)[O-])[C@@H]3SC2)cc1
activity change, negative = inhibition: -7.21% (inactive)
--
smiles_record: CC(=O)[C@@H]1CC[C@@H]2[C@@H]3CCC4=CC(=O)CC[C@@]4(C)[C@H]3CC[C@]21C
activity change, negative = inhibition: 10.7% (inactive)
--
smiles_record: CC[C@H](NC(C)C)[C@H](O)c1ccc(O)c(O)c1
activity change, negative = inhibition: -15.3% (inactive)
--
smiles_record: CC(C)NC[C@H](O)c1cc(O)cc(O)c1
activity change, negative = inhibition: -18.1% (inactive)
--
smiles_record: C[C@@]12CCC(=O)C=C1CC[C@H]1[C@H]3CC[C@](O)(C(=O)CO)[C@]3(C)CC(=O)[C@@H]12
activity change, negative = inhibition: -1.21% (inactive)

Item: C=CCc1ccccc1OC[C@H](O)CNC(C)C | activity change, negative = inhibition: 11.9% (inactive)

* * *

- assay_text: Stat Signaling Pathway (AID 446);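 also: ME-180 cervical cancer cells given 40 pM IL-6 alongside compound; SIE-controlled beta-lactamase reporter measured as 460/530 nm FRET emission ratio; % is scaled to controls: 0 for no effect and ±100 for the full control effect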
- run_parameters: ME-180 (cervical carcinoma) SIE beta-lactamase reporter, IL-6 stimulated, 5 h; at 7.69 µM (top of the series) unless noted
Inconclusive results are not listed. Active and inactive are the calls of the source. The call rests on the fitted dose curve; in most records, active means well fitted curve in either direction with a large enough effect (not every such curve was filed as active); inconclusive means small, poorly fitted or top-dose-only effect, or another doubt; inactive means flat fitted curve, though single readings scatter.
Reported activity, negative = inhibition by item:

smiles_record: N#Cc1cccc(NC(=O)N2CC3(CCN(C(=O)c4cccc(F)c4)CC3)C2)c1
activity, negative = inhibition: -8.78% (inactive)

smiles_record: CCN1C(=O)N[C@@H](c2ccccc2)C1=O
activity, negative = inhibition: -21.2% [at 17.2 µM] (inactive)

smiles_record: COc1ccc(C(=O)N2CCC3(CC2)CCN(c2ncccn2)CC3)cc1
activity, negative = inhibition: 4.32% (inactive)

smiles_record: Cc1cnc(CNc2cc(-c3ccccc3CN(C)C)ncn2)cn1
activity, negative = inhibition: 7.96% (inactive)

smiles_record: CC(=O)N1CCC2(CC1)CN(c1cccc(-c3ccccc3)c1)C2
activity, negative = inhibition: 1.02% (inactive)

Item: CS(=O)(=O)Nc1cccc(-c2nccc(Nc3ccc(F)cc3)n2)c1 | activity, negative = inhibition: -20.3% (inactive)

Item: Cc1noc(C)c1-c1nccc(NCc2cccs2)n1 | activity, negative = inhibition: 2.65% (inactive)

Item: COc1ccc(NC(=O)N2CCCC3(CCN(C(C)=O)CC3)C2)cc1 | activity, negative = inhibition: -0.377% (inactive)

* * *

- assay_text: qHTS Assay for Lipid Storage Modulators (AID 1519)
- run_parameters: Drosophila S3 cells, BODIPY lipid droplet/cell ratio, laser cytometry; measured here: lipid channel max response; cells loaded with oleic acid
- Description: NIH Molecular Libraries Probe Production Centers Network [MLPCN] NIH Chemical Genomics Center [NCGC] Assay Submitter (PI): Beller, Mathias; Max-Planck-Institut fur Biophysikalische Chemie […] We dispensed 4 uL of cells at 1.25 x 10^6 cells/mL into LoBase Aurora COC 1,536-well plates (black walled, clear bottom) with a bottle-valve solenoid-based dispenser (Aurora) to obtain 5,000 cells/well. […] The ratio of the total intensity in PMT channel 1 over total intensity of channel 3 was also calculated. […]
Records with an inconclusive call do not appear.
Reported max response by item:
The response must be a number in % with no trailing unit.

molecule: CC(=O)OCC1=C(C(=O)O)N2C(=O)[C@@H](NC(=O)Cc3cccs3)[C@@H]2SC1
unit_text: %
max response: -18.6

Item: COc1cccc(Nc2ncc3nc(C)c(=O)n(-c4ccccc4)c3n2)c1 | max response: -13.9

Item: Cc1ccccc1[C@@H](OCCN(C)C)c1ccccc1 | max response: 1.49

Item: CN(C)c1ccc(-c2nc(N(C)C)c3ccccc3n2)cc1 | max response: -1.1

Item: COc1ccccc1CN1CCC2(CC1)CCN(C(=O)c1c(C)noc1C)CC2 | max response: 18.8

* * *

- subject_of_test: Dual specificity protein kinase CLK4 (Homo sapiens)
- assay_text: qHTS Assay for Inhibitors of CDC-like Kinase 4 (Kinase-Glo Assay) (AID 1770); also: nearly all actives have a fitted effect of over 65% in size; also: potency is read from the fitted curve at half-maximal effect
- run_parameters: recombinant Clk4, Kinase-Glo ATP depletion luminescence; series mostly up to 66.7 µM
- Text: NIH Molecular Libraries Probe Production Centers Network [MLPCN] NIH Chemical Genomics Center [NCGC] […] Following the Clk4 reaction, the remaining ATP levels were detected using Promega Kinase-Glo technology wherein the remaining ATP from the kinase reaction is detected using Ultra-Glo luciferase and D-luciferin which generates a bioluminescence signal from the ATP. […]
Results filed as inconclusive are left out. Activity calls are given as the source filed them. Calls follow the shape of the dose curve; as a rule, active = well fitted inhibition curve with a large enough effect; inconclusive = small, poorly fitted or top-dose-only effect; inactive = flat fitted curve, though single readings scatter.
property_measured: Potency

# annotated cases, reported Potency shown
smiles_record: c1cncc(-c2ccc3ncnc(NCCN4CCOCC4)c3c2)c1
subject_of_test: Dual specificity protein kinase CLK4 (Homo sapiens)
data_value: 15.8 µM (active)

smiles_record: Cc1ccccc1-c1ccc2ncnc(NCc3cccs3)c2c1
subject_of_test: Dual specificity protein kinase CLK4 (Homo sapiens)
data_value: 3.98 µM (active)

smiles_record: COc1ccc(-c2nc3cnc(OC)nc3n(CCC#N)c2=O)cc1
subject_of_test: Dual specificity protein kinase CLK4 (Homo sapiens)
data_value: inactive

smiles_record: COc1ccc2[nH]cc(CCNc3ccnc(-c4ccc(C(=O)N(C)C)cc4)n3)c2c1
subject_of_test: Dual specificity protein kinase CLK4 (Homo sapiens)
data_value: inactive

smiles_record: COc1cccc(Cn2c(=O)c(-c3cn(C)c4ccccc34)nc3cncnc32)c1
subject_of_test: Dual specificity protein kinase CLK4 (Homo sapiens)
data_value: inactive

Tested system Dual specificity protein kinase CLK4 (Homo sapiens); Potency recorded for CN(C)Cc1ccccc1-c1cc(NCc2ccccc2)ncn1 was inactive

Tested system Dual specificity protein kinase CLK4 (Homo sapiens); Potency recorded for COc1cccc(-c2cncnc2Nc2ccccc2)c1 was inactive

Tested system Dual specificity protein kinase CLK4 (Homo sapiens); Potency recorded for COc1ccc(Oc2ncc3nc(-c4ccc(Cl)cc4)c(=O)n(C4CC4)c3n2)cc1 was inactive

Tested system Dual specificity protein kinase CLK4 (Homo sapiens); Potency recorded for O=c1cnc2cnc(Nc3ccccc3)nc2n1CCc1ccccc1 was 0.199 µM (active)

Tested system Dual specificity protein kinase CLK4 (Homo sapiens); Potency recorded for COc1ccccc1-c1ccc2ncnc(NC3CC3)c2c1 was 11.2 µM (active)

Tested system Dual specificity protein kinase CLK4 (Homo sapiens); Potency recorded for COc1ccccc1CCn1c(=O)c(-c2ccc(F)c(F)c2)nc2cncnc21 was inactive

Tested system Dual specificity protein kinase CLK4 (Homo sapiens); Potency recorded for CN1CCN(c2ncc3nc(-c4ccc(Cl)cc4)c(=O)n(C)c3n2)CC1 was inactive

Tested system Dual specificity protein kinase CLK4 (Homo sapiens); Potency recorded for COc1ccc2[nH]cc(CCNc3cc(-c4cccnc4)ncn3)c2c1 was 14.1 µM (active)

Tested system Dual specificity protein kinase CLK4 (Homo sapiens); Potency recorded for COc1ncc2nc(-c3ccc(F)cc3)c(=O)n(CCc3ccccc3)c2n1 was inactive
